Test system: 485368-065-R3-J5-PDC spheroids with HUVEC/MSC, viability
Experiment: Anticancer human tumor 485368-065-R3-J5-PDC patient-derived pancreatic carcinoma cell line growth inhibition [RAS]; active means viability on the fitted dose curve at most 10% of control; inactive means the rest
Conditions: second compound 0.0949 µM; first compound 10 µM
One label from this list, please: active, inactive

Sample answers from the record:
compound: NC1c2ccccc2OC12CCN(c1cnc3c(N4CCCc5ncccc54)n[nH]c3n1)CC2 (centres undefined) + CCn1c(-c2cc(N3CCN(C)CC3)cnc2C(C)OC)c2c3cc(ccc31)-c1csc(n1)CC(NC(=O)C1CC1C)C(=O)N1CCCC(N1)C(=O)OCC(C)(C)C2
category: active

compound: CC(Nc1ccc2c(c1)OCCn1cc(N3C(=O)OCC3C(F)F)nc1-2)C(N)=O (centres undefined) + CCn1c(-c2cccnc2C(C)OC)c2c3cc(ccc31)N1CCOC(CC(NC(=O)C(C(C)C)N(C)C(=O)C3(F)CCN(C(=O)C#CC(C)(C)N(C)C)CC3)C(=O)N3CCCC(N3)C(=O)OCC(C)(C)C2)C1
category: inactive

compound: CC(=O)OC12COC1CC(O)C1(C)C(=O)C(O)C3=C(C)C(OC(=O)C(O)C(NC(=O)OC(C)(C)C)c4ccccc4)CC(O)(C(OC(=O)c4ccccc4)C21)C3(C)C (centres undefined) + CCn1c(-c2cc(N3CCN(C)CC3)cnc2C(C)OC)c2c3cc(ccc31)-c1csc(n1)CC(NC(=O)C1CC1C)C(=O)N1CCCC(N1)C(=O)OCC(C)(C)C2
category: active

Assay outcome for CC1(O)CCCC1n1c(=O)c(C(F)F)cc2cnc(NC3CCN(S(C)(=O)=O)CC3)nc21 (centres undefined) + CCn1c(-c2cccnc2C(C)OC)c2c3cc(ccc31)N1CCOC(CC(NC(=O)C(C(C)C)N(C)C(=O)C3(F)CCN(C(=O)C#CC(C)(C)N(C)C)CC3)C(=O)N3CCCC(N3)C(=O)OCC(C)(C)C2)C1 : what was it? inactive

* * *

Tested on: 485368-065-R3-J5-PDC spheroids with HUVEC/MSC, viability
Assay: Anticancer human tumor 485368-065-R3-J5-PDC cell line growth inhibition [RAS];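 further: spheroids exposed to agents for seven days before readout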
Settings: second compound 0.00316 µM; first compound 0.01 µM; active compounds read low
measure: viability, T/C

compound: C=CC(=O)Nc1cc(Nc2nccc(-c3cn(C)c4ccccc34)n2)c(OC)cc1N(C)CCN(C)C + C=CC(=O)N1CCN(c2nc(OCC3CCCN3C)nc3c(F)c(-c4nc(N)cc(C)c4C(F)(F)F)c(Cl)cc23)C(C)C1
measure: viability, T/C
endpoint_result: 89.9%

Below are some compounds; for each one, tell me its viability, T/C.
1. Nc1ccn(C2OC(CO)C(O)C2(F)F)c(=O)n1 (stereo not given) + C=CC(=O)N1CCN(c2nc(OCC3CCCN3C)nc3c(F)c(-c4nc(N)cc(C)c4C(F)(F)F)c(Cl)cc23)C(C)C1
2. CC(C)n1nc(-c2ccc3oc(N)nc3c2)c2c(N)ncnc21 + C=CC(=O)N1CCN(c2nc(OCC3CCCN3C)nc3c(F)c(-c4nc(N)cc(C)c4C(F)(F)F)c(Cl)cc23)C(C)C1
3. O=C(c1ccc(F)c(F)c1Nc1ccc(I)cc1F)N1CC(O)([C@@H]2CCCCN2)C1 + C=CC(=O)N1CCN(c2nc(OCC3CCCN3C)nc3c(F)c(-c4nc(N)cc(C)c4C(F)(F)F)c(Cl)cc23)C(C)C1

1: 14.7%; 2: 56%; 3: 60.2%

The compound listed as CCN1CCN(Cc2ccc(Nc3ncc(F)c(-c4cc(F)c5nc(C)n(C(C)C)c5c4)n3)nc2)CC1 + C=CC(=O)N1CCN(c2nc(OCC3CCCN3C)nc3c(F)c(-c4nc(N)cc(C)c4C(F)(F)F)c(Cl)cc23)C(C)C1 shows viability, T/C equal to 95.8%
